Values from PubChem BioAssay (NCI)

Tested on: OVCAR-4 ovarian
Assay: NCI-60 one-dose screen, 48 h (100 = growth as untreated, 0 = no growth, -100 = all killed)
Settings: 10 µM unless noted
This is part of a sample that, as a whole, favours compounds with a hit. Of some 83,000 tested, about 20% had one in any assay.
Note to self: values exactly at 70% are met. So growth at or above 70% is met, below is not met.

| COMPOUND | TEST_TARGET | CATEGORY |
| --- | --- | --- |
| CC1(C)COB(OCC(C)(C)COB2OCC(C)(C)CO2)OC1 | OVCAR-4 ovarian | met |
| COC12C=C/C(=C(/C(=O)OCc3ccncc3)C(=O)CCCCCCCCC3(OC)C=C/C(=C(/C(=O)OCc4ccncc4)C(=O)CCCCCCCC1)O3)O2 | OVCAR-4 ovarian | not met |
| CCC(C)N(CCNc1cc(OC)cc2cccnc12)CC(C)C (centres undefined) | OVCAR-4 ovarian | not met |
| N#Cc1c(-c2ccccc2)[nH]c2ncc(-c3ccccc3)n2c1=O | OVCAR-4 ovarian | met |
| CCOC(=O)C1=C(C)NC(=O)NC1c1c(Cl)n(CCCl)c2ccccc12 (centres undefined) | OVCAR-4 ovarian | met |
| CCOC(=O)n1ccn(C)c1=S | OVCAR-4 ovarian | met |
| CCN1CCN(C(=O)[C@]23CCC(C)(C)C[C@@H]2C2=CC[C@@H]4[C@@]5(C)CCC(=O)C(C)(C)[C@@H]5CC[C@@]4(C)[C@]2(C)CC3)CC1 | OVCAR-4 ovarian | not met |
| CN(/C(N)=N/N=C/c1c2ccccc2cc2ccccc12)C1CCCCC1 | OVCAR-4 ovarian | not met |
